assayedTarget: T1, human Trop-2-ECD-6His fusion protein (human, UniProt P09758 27-274)
T1 construct: Expressed in a human 293 cell line; also called huTrop-2; human Trop-2 antigen
T1 sequence: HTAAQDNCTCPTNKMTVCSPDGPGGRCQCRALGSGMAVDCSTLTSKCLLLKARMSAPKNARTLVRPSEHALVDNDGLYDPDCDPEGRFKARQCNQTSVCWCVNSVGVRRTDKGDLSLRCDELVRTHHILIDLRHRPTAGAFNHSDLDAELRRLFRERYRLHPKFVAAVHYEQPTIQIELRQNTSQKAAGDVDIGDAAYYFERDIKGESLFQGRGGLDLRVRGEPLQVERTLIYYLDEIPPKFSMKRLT
assayComment: antigen binding ELISA on immobilized human Trop-2-ECD-6His
pEC50: −log10 of the molar value.
quantityName: pEC50

binder	measured
humanized IgG #118-2-5 Hu(A3)/LuX (antibody, V domains shown, Second round of humanization) VH: QVQLQESGPGLVKPSETLSLTCTVSGFSLTSYGVNWIRQPPGKGLEWIGVMWAGGSTNYNSALMSRVTISVDTSKNQVSLKLSSVTAADTAVYYCARDENWDGAWFAYWGQGTLVTVSS VL: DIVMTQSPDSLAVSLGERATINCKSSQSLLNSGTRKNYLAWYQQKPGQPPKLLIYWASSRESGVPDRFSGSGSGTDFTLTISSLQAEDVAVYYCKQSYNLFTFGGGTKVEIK	9.51
benchmark antibody hRS7 (antibody, V domains shown) VH: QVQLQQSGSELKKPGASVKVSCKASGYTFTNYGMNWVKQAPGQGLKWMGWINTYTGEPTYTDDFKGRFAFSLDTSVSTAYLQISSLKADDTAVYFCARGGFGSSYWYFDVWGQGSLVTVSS VL: DIQLTQSPSSLSASVGDRVSITCKASQDVSIAVAWYQQKPGKAPKLLIYSASYRYTGVPDRFSGSGSGTDFTLTISSLQPEDFAVYYCQQHYITPLTFGAGTKVDIK	10.05
humanized IgG #118-2-5 Hu(A1)/LuX (antibody, V domains shown, Second round of humanization) VH: QVQLQESGPGLVKPSETLSLTCTVSGFSLTSYGVNWIRQPPGKGLEWIGVMWAGGSTNYNSALMSRVTISVDTSKNQFSLKLSSVTAADTAVYYCARDENWDGAWFAYWGQGTLVTVSS VL: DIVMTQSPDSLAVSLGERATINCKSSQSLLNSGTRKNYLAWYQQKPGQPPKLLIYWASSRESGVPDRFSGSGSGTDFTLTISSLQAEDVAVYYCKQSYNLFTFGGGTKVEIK	9.55

Values were extracted from patent US20230235080A1.
